System: Escherichia coli
Test: Disc diffusion antimicrobial susceptibility test, Escherichia coli
Type: cell-based
Conditions: solution transferred to disc 600 mg cm^−3

>  <compound>
COc1ccc2cc([C@H](C)C(=O)O)ccc2c1.CSCC[C@H](N)C(=O)OC(C)C [[L-MetOiPr][NAP], L-methionine isopropyl ester naproxenate]

>  <Inhibition diameter [mm]>
7.3

$$$$
>  <compound>
CC(C)Cc1ccc(C(C)C(=O)O)cc1.CSCCC(N)C(=O)OC(C)C (mixture of isomers) [[L-MetOiPr][IBU]]

>  <Inhibition diameter [mm]>
7.6

$$$$
>  <compound>
CC(C(=O)O)c1cccc(C(=O)c2ccccc2)c1.CSCCC(N)C(=O)OC(C)C (mixture of isomers) [[L-MetOiPr][KETO]]

>  <Inhibition diameter [mm]>
10.6

$$$$
